Reference source: paper PMC6891695

Assay: Artemia salina toxicity assay
Type: in vivo
Details: Artemia salina, in vivo; 24 h; read-out: EC50 Artemia salina toxicity (mortality)
Response field label takes TRUE when LC50 at 24 h is strictly below 10 µM and FALSE in all other cases.

{"COMPOUND": "CC1=C2CC[C@@](C)(Cl)[C@@H](Br)C[C@]2(C)[C@@H](C)[C@@H](Br)[C@@H]1O", "GROUP": "FALSE"}
{"COMPOUND": "Cc1ccc(C2(C)CCC(=CBr)C2C)c(O)c1 (centres unmarked)", "GROUP": "FALSE"}
{"COMPOUND": "C=C(C1CCC(C)(O)C(Br)C1)C1C(Br)C2C(CCC2(C)O)C1(C)C (centres unmarked)", "GROUP": "FALSE"}
{"COMPOUND": "C=C1C[C@H](O)[C@H](Br)C(C)(C)[C@@]12CCC(C)=C(Cl)C2", "GROUP": "TRUE"}
{"COMPOUND": "CC1(C(Br)CO)CC=C2C(C1)C(O)CC1C2(C)CCC(Br)C1(C)C (centres unmarked)", "GROUP": "FALSE"}
{"COMPOUND": "C#CC=CCC1OC(C(Br)CC)CC(OC(C)=O)C(Cl)CC1Cl (centres unmarked)", "GROUP": "TRUE"}
{"COMPOUND": "C=CC(C)(O)CC[C@@H]1C(=C)CC[C@@H](Br)[C@@]1(C)CCC1OC1(C)C (some centres unmarked)", "GROUP": "FALSE"}

###

Test system: RTL-W1 cell line
Assay: RTL-W1 neutral red assay (lysosome activity)
Assay type: cell-based, rainbow trout
Details: Oncorhynchus mykiss, 48 h incubation
RECORDED ENDPOINT: EC50 (µM)

{"COMPOUND": "C=CC(C)(O)CC[C@@H]1C(=C)CC[C@@H](Br)[C@@]1(C)CCC1OC1(C)C (stereo partly shown)", "UNIT ABBREVIATION": "µM", "OPERATOR SYMBOL": "=", "ASSAY VALUE": 138}
{"COMPOUND": "CC1=C2CC[C@@](C)(Cl)[C@@H](Br)C[C@]2(C)[C@@H](C)[C@@H](Br)[C@@H]1O", "UNIT ABBREVIATION": "µM", "OPERATOR SYMBOL": ">", "ASSAY VALUE": 1000}
{"COMPOUND": "CC(C)[C@@H]1CC=C[C@H]2[C@H]3[C@](C)(CC[C@]12CBr)[C@@H](Br)CC[C@@]3(C)O [Bromosphaerol, reference compound]", "UNIT ABBREVIATION": "µM", "OPERATOR SYMBOL": "=", "ASSAY VALUE": 144}
{"COMPOUND": "C=C(C1CCC(C)(O)C(Br)C1)C1C(Br)C2C(CCC2(C)O)C1(C)C (stereo not shown)", "UNIT ABBREVIATION": "µM", "OPERATOR SYMBOL": ">", "ASSAY VALUE": 1000}

###

Experiment: in vivo
Type: in vivo
Details: Amphibalanus amphitrite, in vivo; 48 h exposure; read-out: LC50 Mortality
Label yes (1) when LC50 at 48 h is strictly below 5 µM; at or above that, label no (0).

{"MOLECULE": "C=C1C[C@H](O)[C@H](Br)C(C)(C)[C@@]12CCC(C)=C(Cl)C2", "GROUP": "yes (1)"}
{"MOLECULE": "CC(C)[C@@H]1CC=C[C@H]2[C@H]3[C@](C)(CC[C@]12CBr)[C@@H](Br)CC[C@@]3(C)O [Bromosphaerol, reference compound]", "GROUP": "yes (1)"}
{"MOLECULE": "CC1=CC[C@@]2(C)C(=C(C)C(=O)[C@@H](O)[C@@H]2C)CC1", "GROUP": "no (0)"}
{"MOLECULE": "C=C1CC[C@@](C)(c2ccc(C)cc2)[C@H]1C", "GROUP": "no (0)"}
{"MOLECULE": "C=CC(C)(O)CC[C@@H]1C(=C)CC[C@@H](Br)[C@@]1(C)CCC1OC1(C)C (some centres unmarked)", "GROUP": "no (0)"}
{"MOLECULE": "CC1(C(Br)CO)CC=C2C(C1)C(O)CC1C2(C)CCC(Br)C1(C)C (centres unmarked)", "GROUP": "yes (1)"}
{"MOLECULE": "C=CC(C)(O)CC[C@H](Br)[C@@]1(C)CC[C@H](Br)C(C)(C)O1 (some centres unmarked)", "GROUP": "no (0)"}
{"MOLECULE": "Cc1ccc(C2(C)CCC(=CBr)C2C)c(O)c1 (centres unmarked)", "GROUP": "yes (1)"}

###

Test system: Chaetoceros gracilis
Test: Chaetoceros gracilis toxicity (phytoplankton growth) assay
Type: cell-based
Conditions: Chaetoceros neogracilis, 96 h
pEC50: −log10 of the molar value.
pEC50 overview

{"MOLECULE": "CC1C(Br)C(=O)C(C)C23CCC2(C)C(Br)CC13C (stereo not shown)", "pEC50": 5.34}
{"MOLECULE": "CC(C)[C@@H]1CC=C[C@H]2[C@H]3[C@](C)(CC[C@]12CBr)[C@@H](Br)CC[C@@]3(C)O [Bromosphaerol, reference compound]", "pEC50": 5.36}
{"MOLECULE": "C=C(C1CCC(C)(O)C(Br)C1)C1C(Br)C2C(CCC2(C)O)C1(C)C (stereo not shown)", "pEC50": 3.45}
{"MOLECULE": "CC1(C(Br)CO)CC=C2C(C1)C(O)CC1C2(C)CCC(Br)C1(C)C (stereo not shown)", "pEC50": 5.79}
{"MOLECULE": "C=CC(C)(O)CC[C@@H]1C(=C)CC[C@@H](Br)[C@@]1(C)CCC1OC1(C)C (stereo partly shown)", "pEC50": 4.97}
{"MOLECULE": "CC1=C2CC[C@@](C)(Cl)[C@@H](Br)C[C@]2(C)[C@@H](C)[C@@H](Br)[C@@H]1O", "pEC50": 4.30}
{"MOLECULE": "C#CC=CCC1OC(C(Br)CC)CC(OC(C)=O)C(Cl)CC1Cl (stereo not shown)", "pEC50": 5.67}

###

Assay: in vivo
Type: in vivo
Details: Amphibalanus amphitrite, in vivo; 24 h exposure; read-out: LC50 Mortality

{"COMPOUND": "C=C(C1CCC(C)(O)C(Br)C1)C1C(Br)C2C(CCC2(C)O)C1(C)C (stereo not shown)", "UNIT ABBREVIATION": "µM", "OPERATOR SYMBOL": "=", "LC50 at 24 h": 413}
{"COMPOUND": "Cc1cc(O)c(C2(C)CCC3CC32C)cc1Br (stereo not shown)", "UNIT ABBREVIATION": "µM", "OPERATOR SYMBOL": "=", "LC50 at 24 h": 12.3}
{"COMPOUND": "C=CC(C)(O)CCC1C(=C)CCC(Br)C1(C)CCC(O)C(C)(C)Cl (stereo not shown)", "UNIT ABBREVIATION": "µM", "OPERATOR SYMBOL": ">", "LC50 at 24 h": 1000}
{"COMPOUND": "CC(=O)OCC(Br)C1(C)CC=C2C(C1)C(O)CC1C2(C)CC(OC(C)=O)C2CC21C (stereo not shown) [Compound 15, deoxyparguerol 16-acetate]", "UNIT ABBREVIATION": "µM", "OPERATOR SYMBOL": "=", "LC50 at 24 h": 31.7}
{"COMPOUND": "CC1=C2CC[C@@](C)(Cl)[C@@H](Br)C[C@]2(C)[C@@H](C)[C@@H](Br)[C@@H]1O", "UNIT ABBREVIATION": "µM", "OPERATOR SYMBOL": "=", "LC50 at 24 h": 76.2}
{"COMPOUND": "CC(C)C1=C2CCC(C)C2CC(C)(C)C1O (stereo not shown) [Compound 8, 4-hydroxy-5-brasilene]", "UNIT ABBREVIATION": "µM", "OPERATOR SYMBOL": "=", "LC50 at 24 h": 7.76}
{"COMPOUND": "C=CC(C)(O)CC[C@@H]1C(=C)CC[C@@H](Br)[C@@]1(C)CCC1OC1(C)C (stereo partly shown)", "UNIT ABBREVIATION": "µM", "OPERATOR SYMBOL": "=", "LC50 at 24 h": 26.2}
{"COMPOUND": "CC1C(Br)C(=O)C(C)C23CCC2(C)C(Br)CC13C (stereo not shown)", "UNIT ABBREVIATION": "µM", "OPERATOR SYMBOL": "=", "LC50 at 24 h": 56.1}
{"COMPOUND": "C#CC=CCC1OC(C=CC)CC=CCC1Cl (stereo not shown)", "UNIT ABBREVIATION": "µM", "OPERATOR SYMBOL": "=", "LC50 at 24 h": 0.575}
{"COMPOUND": "CC1(C(Br)CO)CC=C2C(C1)C(O)CC1C2(C)CCC(Br)C1(C)C (stereo not shown)", "UNIT ABBREVIATION": "µM", "OPERATOR SYMBOL": "=", "LC50 at 24 h": 1.96}
{"COMPOUND": "C=C1C[C@H](O)[C@H](Br)C(C)(C)[C@@]12CCC(C)=C(Cl)C2", "UNIT ABBREVIATION": "µM", "OPERATOR SYMBOL": "=", "LC50 at 24 h": 0.327}
{"COMPOUND": "C=C1CC[C@@](C)(c2cc(Br)c(C)cc2OC(C)=O)[C@H]1C [Compound 3, allolaurinterol acetate]", "UNIT ABBREVIATION": "µM", "OPERATOR SYMBOL": "=", "LC50 at 24 h": 66.1}
{"COMPOUND": "CC(C)[C@H]1CC(C)(C)[C@@H](O)C2=C1CC[C@H]2C [Compound 7, epibrasilenol]", "UNIT ABBREVIATION": "µM", "OPERATOR SYMBOL": "=", "LC50 at 24 h": 24.8}
{"COMPOUND": "C=CC(C)(O)CC[C@H](Br)[C@@]1(C)CC[C@H](Br)C(C)(C)O1 (stereo partly shown)", "UNIT ABBREVIATION": "µM", "OPERATOR SYMBOL": "=", "LC50 at 24 h": 29.8}
{"COMPOUND": "Cc1cc2c(cc1Br)C1(C)CCC(C)(O2)C1C (stereo not shown)", "UNIT ABBREVIATION": "µM", "OPERATOR SYMBOL": "=", "LC50 at 24 h": 33.1}
{"COMPOUND": "CC1=CC[C@@]2(C)C(=C(C)C(=O)[C@@H](O)[C@@H]2C)CC1", "UNIT ABBREVIATION": "µM", "OPERATOR SYMBOL": "=", "LC50 at 24 h": 28.8}
